# systemTested: T1, Anti-IL-8 Antibody
# T1 construct: also called anti-human IL-8 antibody; Fc-Mutated Antibody
# T1 sequence (constant, as listed by the source limits assumed): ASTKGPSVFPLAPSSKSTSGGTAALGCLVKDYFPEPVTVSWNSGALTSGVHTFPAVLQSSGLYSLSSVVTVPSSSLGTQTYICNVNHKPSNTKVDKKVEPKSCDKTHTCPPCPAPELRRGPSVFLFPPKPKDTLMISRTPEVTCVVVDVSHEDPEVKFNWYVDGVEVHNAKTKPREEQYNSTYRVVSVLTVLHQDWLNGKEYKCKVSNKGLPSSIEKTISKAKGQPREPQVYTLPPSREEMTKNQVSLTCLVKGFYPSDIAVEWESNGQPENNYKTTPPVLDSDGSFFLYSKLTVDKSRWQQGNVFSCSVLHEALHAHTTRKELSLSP
# testDescription: SPR (Biacore T200), 25 C, pH 7.4; SKA antibody captured by anti-rabbit IgG, Anti-IL-8 Antibody injected 0-800 nM
Each item that follows carries a reported koff.
Could you give the number and then its unit, please?

Answered cases to consult:
**Q:** Return koff (reported value) for this binder: SKA0009 (antibody, V domains shown, Recombinant rabbit monoclonal from B-cell cloning, expressed in FreeStyle 293-F cells; the first screen used B-cell culture supernatant; also called Anti-SG115 Antibody; rabbit Anti Fc-Mutation Antibody) VH: QSVEESGGRLVTPGTSLTLTCTVSGIDLSSYGMGWVRQAPGMGLEYIGIIYAAGRTYYASWVKGRFIISKTSTTVDLEMTSLTTEDTATYFCARHGSWYAGMDLWGPGTLVTVSS VL: AIEMTQTPSPVSAAVGGTVSINCQASEDIENYFAWYQQKPGQPPKLLIYDASELASGVPSRFSGSGSGTDFTLTISGVQCDDAATYYCQHADYAASSENTFGGGTEVVVKG
**A:** 0.000904 s⁻¹

**Q:** For the binder SKA0016 (antibody, V domains shown, Recombinant rabbit monoclonal from B-cell cloning, expressed in FreeStyle 293-F cells; the first screen used B-cell culture supernatant; also called Anti-SG115 Antibody; rabbit Anti Fc-Mutation Antibody) VH: QEQLVESGGGLVQPEGSLTLTCTASGFSFSSSDYMCWVRQAPGKGLEWIACIYIGSNGDTFYASWAKGRFTISKTSSTTVTLQMTSLTAADTATYFCARDSRRADDYGTRLDLWGQGTLVTVSS VL: DIVMTQTPSSVSAAVGGTVTIKCQASQNIYRNLAWYQQKPGQPPKLLIYQASKLESGVPSRFKGSGSGTEFTLTISDLDCDDAASYYCQSISYISSGDTFFWAFGGGTEVVVKG , give its reported koff.
**A:** 0.00071 s⁻¹

**Q:** Give a short answer stating reported koff for SKA0052 (antibody, V domains shown, Recombinant rabbit monoclonal from B-cell cloning, expressed in FreeStyle 293-F cells; the first screen used B-cell culture supernatant; also called Anti-SG115 Antibody; rabbit Anti Fc-Mutation Antibody) VH: QSLEESGGDLVKSGASLTLTCTASGFSFSSSYYMCWVRQAPGKGLEWIACIYTGSNGDTYYASWANGRFTISKASSTTVTLQMTSLTAADTATYFCARYTYDDDGDYTSFNLWGPGTLVTVSS VL: ALVMTQTPSSVSADVGGTVTINCQASQNIYRNLAWYQQKPGQRPKLLIYGASNLEPGVPSRFKGSGSGTEFTLTISDLECDDAATYYCQSVGYSGSVDTFFYAFGGGTEVVVKG .
**A:** 0.00431 s⁻¹

**Q:** Give reported koff value for SKA0127 (antibody, V domains shown, Recombinant rabbit monoclonal from B-cell cloning, expressed in FreeStyle 293-F cells; the first screen used B-cell culture supernatant; also called Anti-SG115 Antibody; rabbit Anti Fc-Mutation Antibody) VH: QSVEESGGRLVTPGTPLTLTCTVSGIDLSTYAMTWVRQAPGKGLEYIGYINGGGSAYYASWVNGRFTISKTSTTADLKITSPTTEDTATYFCARGPVGSYHRIWGPGTLVTVSS VL: ALVMTQTPSSVSEPVGGTVTINCRASEDIESYLAWYQQKPGQPPKLLIYATSNLETGVPSRFKGSGSGTDYTLTISGVQCADAATYYCQGYYELSSIDNNAFGGGTEVVVKG
**A:** 0.000804 s⁻¹

**Q:** Specify koff for SKA0054 (antibody, V domains shown, Recombinant rabbit monoclonal from B-cell cloning, expressed in FreeStyle 293-F cells; the first screen used B-cell culture supernatant; also called Anti-SG115 Antibody; rabbit Anti Fc-Mutation Antibody) VH: QSLEESGGGLVQPEGSLTLTCTASGFSFSSSFWICWVRQAPGKGLEWLACIDAGSSDNTYYANWAKGRFTISKTSSTTVTLQMTSLTDADTATYFCARDRDAAGDAGYGYATSFNLWGPGTLVTVSS VL: AIDMTQTPSSVSAAVGGTVTINCQASESIYSNLAWYQQKPGQRPKLLIYLASTLASGVPSRFKGSGSGTEFTLTISDLECADAATYYCQSVYYDSRGDTFFWAFGGGTEVVVKG and stop.
**A:** 0.000966 s⁻¹

Alright, here's another binder for you.
**Q:** Dear colleague, please send me the reported koff for SKA0046 (antibody, V domains shown, Recombinant rabbit monoclonal from B-cell cloning, expressed in FreeStyle 293-F cells; the first screen used B-cell culture supernatant; also called Anti-SG115 Antibody; rabbit Anti Fc-Mutation Antibody) VH: QEQLVESGGGLVQPEGSLTLTCTASGFSLSSSNYMWWVRQAPGKGLEWIACIHASSSGDTYYANWAKGRFTISKTSSTTVTLQMTSLTAADTATYFCARGGYIYGDGGYNGVAGFSLWGPGTLVTVSS VL: DVVMTQTPASVSEPVGGTVTIKCQASETIGNALAWYQQKPGQRPKLLIYGASNLESGVPSRFKGSGSGTEFTLTISDVQCDDAATYYCQSIYYSSSADTFFFPFGGGTEVVVKG when you can.
**A:** 0.00209 s⁻¹

FYI, the data here is from patent US20220195070A1.
